Assay: Plasma concentrations of protease inhibitors, ritonavir and efavirenz (antiretroviral exposures)
Details: human, in vivo
Would you kindly list Cmax for each of these molecules?
All answers are understood in ng/mL, so give the number only.

-- ask Dear colleague, please send me the reported Cmax for COC(=O)N[C@H](C(=O)N[C@@H](Cc1ccccc1)[C@@H](O)CN(Cc1ccc(-c2ccccn2)cc1)NC(=O)[C@@H](NC(=O)OC)C(C)(C)C)C(C)(C)C [Atazanavir] when you can.
-- reply 3800

-- ask Dear colleague, please send me the reported Cmax for CC(C)c1nc(CN(C)C(=O)N[C@H](C(=O)N[C@@H](Cc2ccccc2)C[C@H](O)[C@H](Cc2ccccc2)NC(=O)OCc2cncs2)C(C)C)cs1 [Ritonavir] when you can.
-- reply 600

-- ask Dear colleague, please send me the reported Cmax for O=C1Nc2ccc(Cl)cc2[C@@](C#CC2CC2)(C(F)(F)F)O1 [Efavirenz] when you can.
-- reply 1300
